system: HL-60(TB) leukemia; assay: NCI tumour cell line growth inhibition, 48 h
measure: TGI

In the examples that follow, each entry is paired with its recorded TGI.
COc1ccc2c(Oc3ccc(NC(=O)c4c(C)n(CC(C)(C)O)n(-c5ccccc5)c4=O)nc3)ccnc2c1 : > 62.3 µM
Cc1cccc(N=C2NC(=O)C(CC(=O)Nc3cccc(C)c3C)S2)c1 (stereo not given) : > 100 µM
O=C(O)CN(c1ccccc1)S(=O)(=O)c1ccc([N+](=O)[O-])cc1 : > 100 µM
CC1C(c2ccc3c(c2)OCO3)c2cc3c(cc2OC1N1CCOCC1)OCO3 (stereo not given) : > 62.2 µM

Okay, next one:
Noted for "Cn1cc(-c2ccc(-c3cncc(Cl)c3N3CCC4(CCNC4=O)CC3)cc2)cn1" : its TGI reads 55.5 µM
